test system: Panc-1; experiment: Cell viability assay (CellTiter-Blue/CellTiter-Glow); format: cell-based; conditions: Homo sapiens; pancreatic carcinoma cell line Panc-1; absolute IC50; 72 h
Measurement type: IC50

In [3]: df
Out[3]:
                              sample_smiles  test_result
0  O=c1cc(-c2ccc(CCCC[P+](c3ccccc3)(c3ccccc3)c3ccccc3)cc2)oc2c3c(ccc12)OCO3.[Br-]      2320 nM

###

tested on: ZR-75-1; assay: Cell viability assay (CellTiter-Blue/CellTiter-Glow); format: cell-based; settings: Homo sapiens; breast carcinoma cell line ZR-75-1; absolute IC50; 72 h
pIC50: −log10 of the molar value.
Measurement type: pIC50

In [3]: df
Out[3]:
                              sample_smiles  test_result
0  O=c1cc(-c2ccc(CCCC[P+](c3ccccc3)(c3ccccc3)c3ccccc3)cc2)oc2c3c(ccc12)OCO3.[Br-]         5.60
